Test name: Plasma pharmacokinetics, noncompartmental analysis (LC-MS/MS)
Format: in vivo, human
Settings: human, plasma, oral, 150 mg, Part E Cohort 1; single dose abemaciclib 150 mg with exemestane + everolimus; plasma; read-out: mean Cmax
Metric name: Cmax (ng/mL)

INSERT INTO assay_data (chemical_string, metric_name, units_text, numeric_result) VALUES
  ('CCN1CCN(Cc2ccc(Nc3ncc(F)c(-c4cc(F)c5nc(C)n(C(C)C)c5c4)n3)nc2)CC1', 'Cmax', 'ng/mL', 157);

* * *

Test name: Plasma pharmacokinetics, noncompartmental analysis (LC-MS/MS)
Type: in vivo, human
Settings: human, plasma, oral, 150 mg, Part E Cohort 1; multiple doses abemaciclib 150 mg Q12H with exemestane + everolimus; read-out: mean Cmax
Metric name: Cmax (ng/mL)

INSERT INTO assay_data (chemical_string, numeric_result) VALUES
  ('CCN1CCN(Cc2ccc(Nc3ncc(F)c(-c4cc(F)c5nc(C)n(C(C)C)c5c4)n3)nc2)CC1', 452);

* * *

Test name: Plasma pharmacokinetics, noncompartmental analysis (LC-MS/MS)
Assay type: in vivo, human
Settings: human, plasma, oral, Part G; single dose 150 mg abemaciclib with 500 mg fulvestrant and 100 mg or 150 mg LY3023414; range over cohorts; read-out: abemaciclib mean Cmax
Metric name: Cmax

INSERT INTO assay_data (chemical_string, result) VALUES
  ('CCN1CCN(Cc2ccc(Nc3ncc(F)c(-c4cc(F)c5nc(C)n(C(C)C)c5c4)n3)nc2)CC1', '131 to 139 ng/mL');
